I'd be grateful if you could share measured biofilm OD600 for these entries.
tested on: Candida albicans SNY425 biofilm; assay: biofilm OD600 with compound plus antifungal (OD600 (absorbance)); higher = more biofilm remaining; details: assay detail: sustained inhibition (compound + antifungal during 90-min adherence and 24-h growth)
Give bare numbers.

The cases that follow already have their biofilm OD600 on record.
compound	biofilm OD600
CC(C)(C)NC(=O)[C@@H]1C[C@@H]2CCCC[C@@H]2CN1C[C@@H](O)[C@H](Cc1ccccc1)NC(=O)[C@H](CC(N)=O)NC(=O)c1ccc2ccccc2n1 [saquinavir] + OC(Cn1cncn1)(Cn1cncn1)c1ccc(F)cc1F [fluconazole] (first compound 12.5 µM)	0.112
Cc1cccc(C)c1OCC(=O)N[C@@H](Cc1ccccc1)[C@@H](O)C[C@H](Cc1ccccc1)NC(=O)[C@H](C(C)C)N1CCCNC1=O [lopinavir] + OC(Cn1cncn1)(Cn1cncn1)c1ccc(F)cc1F [fluconazole] (first compound 12.5 µM)	0.141
Cc1c(O)cccc1C(=O)N[C@@H](CSc1ccccc1)[C@H](O)CN1C[C@H]2CCCC[C@H]2C[C@H]1C(=O)NC(C)(C)C [nelfinavir] + CC[C@H](C)C[C@H](C)CCCCCCCCC(=O)N[C@H]1C[C@@H](O)[C@@H](NCCN)NC(=O)[C@@H]2[C@@H](O)CCN2C(=O)[C@H]([C@H](O)CCN)NC(=O)[C@H]([C@H](O)[C@@H](O)c2ccc(O)cc2)NC(=O)[C@@H]2C[C@@H](O)CN2C(=O)[C@H]([C@@H](C)O)NC1=O [caspofungin] (first compound 12.5 µM)	0.127

Now for another entry.
# get_value(readout='biofilm OD600', item= CCCCC[C@H](CC(=O)NO)C(=O)N[C@H](C(=O)N1CCC[C@H]1CO)C(C)C [Actinonin] + CC[C@H](C)C[C@H](C)CCCCCCCCC(=O)N[C@H]1C[C@@H](O)[C@@H](NCCN)NC(=O)[C@@H]2[C@@H](O)CCN2C(=O)[C@H]([C@H](O)CCN)NC(=O)[C@H]([C@H](O)[C@@H](O)c2ccc(O)cc2)NC(=O)[C@@H]2C[C@@H](O)CN2C(=O)[C@H]([C@@H](C)O)NC1=O [caspofungin] (first compound 12.5 µM) )
0.182

---

I'd be grateful if you could share measured biofilm OD600 for these entries.
test system: Candida albicans SNY425 biofilm; assay: biofilm OD600 with compound plus antifungal (OD600 (absorbance)); higher = more biofilm remaining; conditions: assay detail: sustained inhibition (compound + antifungal during 90-min adherence and 24-h growth)
Counter-ions that a name gives are not always drawn.
Answers are plain numbers.

compound	assayed.target	measurement
CC(C)(C)NC(=O)[C@@H]1CN(Cc2cccnc2)CCN1C[C@@H](O)C[C@@H](Cc1ccccc1)C(=O)N[C@H]1c2ccccc2C[C@H]1O [indinavir] + C[C@@H]1[C@H](O)[C@@H](C)/C=C/C=C/C=C/C=C/C=C/C=C/C=C/[C@H](O[C@@H]2O[C@H](C)[C@@H](O)[C@H](N)[C@@H]2O)C[C@@H]2O[C@](O)(C[C@@H](O)C[C@@H](O)[C@H](O)CC[C@@H](O)C[C@@H](O)CC(=O)O[C@H]1C)C[C@H](O)[C@H]2C(=O)O [amphotericin B] (first compound 12.5 µM)	Candida albicans SNY425 biofilm	0.228

Each of the following entries comes with a recorded value; kindly state biofilm OD600 for each.
1. O=C[C@@H]1CCCN1C(=O)[C@@H]1CCCN1C(=O)OCc1ccccc1 [Z-Prolyl-prolinal] + C[C@@H]1[C@H](O)[C@@H](C)/C=C/C=C/C=C/C=C/C=C/C=C/C=C/[C@H](O[C@@H]2O[C@H](C)[C@@H](O)[C@H](N)[C@@H]2O)C[C@@H]2O[C@](O)(C[C@@H](O)C[C@@H](O)[C@H](O)CC[C@@H](O)C[C@@H](O)CC(=O)O[C@H]1C)C[C@H](O)[C@H]2C(=O)O [amphotericin B] (first compound 12.5 µM)
2. O=C(O[C@@H]1Cc2c(O)cc(O)cc2O[C@@H]1c1cc(O)c(O)c(O)c1)c1cc(O)c(O)c(O)c1 [Epigallocatechin gallate] + OC(Cn1cncn1)(Cn1cncn1)c1ccc(F)cc1F [fluconazole] (first compound 12.5 µM)
3. CC[C@H](C)[C@H](N)C(=O)N1CCSC1 [P32/98 hemifumarate salt] + CC[C@H](C)C[C@H](C)CCCCCCCCC(=O)N[C@H]1C[C@@H](O)[C@@H](NCCN)NC(=O)[C@@H]2[C@@H](O)CCN2C(=O)[C@H]([C@H](O)CCN)NC(=O)[C@H]([C@H](O)[C@@H](O)c2ccc(O)cc2)NC(=O)[C@@H]2C[C@@H](O)CN2C(=O)[C@H]([C@@H](C)O)NC1=O [caspofungin] (first compound 12.5 µM)

0.156
0.164
0.171
